System: SW48
assay.text: MTS proliferation assay
Format: cell-based, human
condition.description: Homo sapiens, SW48, 72 h
pIC50: −log10 of the molar value.
readout.kind: pIC50

C[C@@]1(C(=O)Nc2ccc(F)nc2)CCCN1c1nc(Nc2cc(C3CC3)n[nH]2)c2cccn2n1 | 7.89

---

System: panel of 60 CRC cell lines
assay.text: MTS proliferation assay, whole panel
Type: cell-based, human
condition.description: read-out: IC50, range of sensitivity across the panel
pIC50: −log10 of the molar value.
readout.kind: pIC50

C[C@@]1(C(=O)Nc2ccc(F)nc2)CCCN1c1nc(Nc2cc(C3CC3)n[nH]2)c2cccn2n1 [BMS-754807] | 5.26 to 8.52
